Measured values drawn from the supplement of paper PMC8882468 for this set.

Tested on: HCI-016 (organoid from a triple-negative breast cancer xenograft)
Procedure Summary: CTG-3D luminescence at 96 h relative to day-0 seeding control (ratio to day 0); higher = more growth / less cytotoxicity; PDxO 3D drug screen, 96 h, CTG-3D normalised to day-0 seeding control.
Experimental Parameters: 100 µM; days in culture: 153
Outcome Measure: CTG-3D luminescence at 96 h
I only need the number, thanks.

These recorded examples may help you get a feel for the data.
[
  {
    "Structure String": "CC[C@H](NC(=O)[C@H](C)NC)C(=O)N1C[C@@H](O)C[C@H]1Cc1c(-c2[nH]c3cc(F)ccc3c2C[C@@H]2C[C@H](O)CN2C(=O)[C@H](CC)NC(=O)[C@H](C)NC)[nH]c2cc(F)ccc12",
    "CTG-3D luminescence at 96 h": 0.41
  },
  {
    "Structure String": "O=C(/C=C/c1cccnc1)NCCCCC1CCN(C(=O)c2ccccc2)CC1",
    "CTG-3D luminescence at 96 h": 0.0183
  }
]

// next item, CTG-3D luminescence at 96 h requested
Q: Query (molecule): "C[C@H](NC(=O)CCC(F)(F)F)C(=O)N[C@@H]1C(=O)N(CCO)c2ncccc2-c2ccccc21" ; field requested: CTG-3D luminescence at 96 h
A: 2.19
